For each of the compounds below, state its IC50 at 48 h.
experiment: Cytotoxicity against human HaCaT cells assessed as cell growth inhibition incubated for 48 hrs by MTT assay; format: toxicity, cell-based
Answers are plain numbers, in µM.

Field: example entries. Status: answers known.
Cc1sc([Se]c2sc(C)c(-c3cccc(Br)c3)c2C(=O)NC(CO)C(=O)N2CCCC2)c(C(=O)NC(CO)C(=O)N2CCCC2)c1-c1cccc(Br)c1 (stereo not given)
24
Cc1sc([Se]c2sc(C)c(-c3cccc(Cl)c3)c2C(=O)NC(CO)C(=O)N2CCCC2)c(C(=O)NC(CO)C(=O)N2CCCC2)c1-c1cccc(Cl)c1 (stereo not given)
31.8
Cc1sc([Se]c2sc(C)c(-c3cccc(F)c3)c2C(=O)NC(C)C(=O)N2CCCC2)c(C(=O)NC(C)C(=O)N2CCCC2)c1-c1cccc(F)c1 (stereo not given)
29.3
Cc1sc([Se]c2sc(C)c(-c3ccccc3)c2C(=O)NC(C)C(=O)N2CCCC2)c(C(=O)NC(C)C(=O)N2CCCC2)c1-c1ccccc1 (stereo not given)
26.4

API: the following record is the query input.
Specify IC50 at 48 h for Cc1sc([Se]c2sc(C)c(-c3cccc(F)c3)c2C(=O)NCC(=O)N2CCCC2)c(C(=O)NCC(=O)N2CCCC2)c1-c1cccc(F)c1 and stop. 24.7
